test target: CBP bromodomain (Homo sapiens, UniProt Q92793)
Construct: docked complex of Compound 21 with CBP bromodomain
Sequence (Q92793 1085-1192 limits assumed): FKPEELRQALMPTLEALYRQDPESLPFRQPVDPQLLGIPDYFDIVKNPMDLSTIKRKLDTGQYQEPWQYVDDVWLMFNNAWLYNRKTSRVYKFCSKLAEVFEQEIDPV
test description: AlphaScreen in vitro binding assay with CBP
condition summary: AlphaScreen, isolated CBP bromodomain; means of at least two determinations
# note: exactly 2000 nM is not below, so it is false (0); use true (1) for IC50 strictly under it

> print(dat)
                                   compound  class.label
1  CCOc1ccc(CCc2nc3cc(-c4c(C)noc4C)ccn3c2NC(C)(C)CC(C)(C)C)cc1 [Compound 29]    false (0)
2  Cc1[nH]nc2ccc(-c3ccn4c(NC5CCCCC5)c(CCc5ccccc5)nc4c3)cc12 [Compound 11]    false (0)
3  Cc1noc(C)c1-c1ccn2c(NC(C)(C)CC(C)(C)C)c(CCc3ccccc3)nc2c1 [Compound 13]     true (1)
4  Cc1noc(C)c1-c1ccn2c(NC3CCCCC3)c(CCc3ccccc3)nc2c1 [Compound 5]     true (1)
5  COc1ccc(CCc2nc3cc(-c4c(C)noc4C)ccn3c2NC2CCCCC2)cc1OC [Compound 33]     true (1)
6  Cc1noc2ccc(-c3ccn4c(NC5CCCCC5)c(CCc5ccccc5)nc4c3)cc12 [Compound 12]    false (0)

----------
test target: CBP bromodomain (Homo sapiens, UniProt Q92793)
Construct: docked complex of Compound 21 with CBP bromodomain
test description: AlphaScreen in vitro binding assay with CBP
condition summary: ratio BRD4(1) IC50 / CBP IC50
Binary call on Selectivity Value [BRD4(1) IC50 (μM)/CBP IC50 (μM)] with cut-off 6: strictly below means class 1, and equality or higher means class 0.

> print(dat)
                                   compound  class.label
1  Cc1noc2ccc(-c3ccn4c(NC5CCCCC5)c(CCc5ccccc5)nc4c3)cc12 [Compound 12]      class 1
2  Cc1noc(C)c1-c1ccn2c(NC3CCCCC3)c(CCc3ccc(OC(C)C)cc3)nc2c1 [Compound 36]      class 0
3  COc1ccc(CCc2nc3cc(-c4c(C)noc4C)ccn3c2NCC(=O)OC(C)(C)C)cc1 [Compound 15]      class 1
4  COc1ccc(CCCc2nc3cc(-c4c(C)noc4C)ccn3c2NC2CCCCC2)cc1 [Compound 27]      class 1
5  Cc1noc(C)c1-c1ccn2c(NC3CCCCC3)c(CCc3ccccc3)nc2c1 [Compound 5]      class 0
6  COc1ccc(CCc2nc3cc(-c4c(C)noc4C)ccn3c2NC(C)(C)C)cc1 [Compound 20]      class 0
7  CCOc1ccc(CCc2nc3cc(-c4c(C)noc4C)ccn3c2NC2CCCCC2)cc1 [Compound 22]      class 0

----------
Here, each record is paired with measured Selectivity Value [BRD4(1) IC50 (μM)/CBP IC50 (μM)] data.
test target: CBP bromodomain (Homo sapiens, UniProt Q92793)
Construct: docked complex of Compound 21 with CBP bromodomain
test description: AlphaScreen in vitro binding assay with CBP
condition summary: ratio BRD4(1) IC50 / CBP IC50
measured parameter: Selectivity Value [BRD4(1) IC50 (μM)/CBP IC50 (μM)]

> print(dat)
                                item.smiles  measured.result
1  CCOc1ccc(CCc2nc3cc(-c4c(C)noc4C)ccn3c2NC(C)(C)CC(C)(C)C)cc1Cl               >2
2  COc1ccc(-c2nc3cc(C)cc(C)n3c2NC(C)(C)CC(C)(C)C)cc1               >3
3  Cc1noc(C)c1-c1ccn2c(NC(C)(C)C)c(CCc3ccccc3)nc2c1                6
